SYSTEM TESTED: FUS-SNAP (UniProt P35637 1-526)
Sequence (P35637 whole entry): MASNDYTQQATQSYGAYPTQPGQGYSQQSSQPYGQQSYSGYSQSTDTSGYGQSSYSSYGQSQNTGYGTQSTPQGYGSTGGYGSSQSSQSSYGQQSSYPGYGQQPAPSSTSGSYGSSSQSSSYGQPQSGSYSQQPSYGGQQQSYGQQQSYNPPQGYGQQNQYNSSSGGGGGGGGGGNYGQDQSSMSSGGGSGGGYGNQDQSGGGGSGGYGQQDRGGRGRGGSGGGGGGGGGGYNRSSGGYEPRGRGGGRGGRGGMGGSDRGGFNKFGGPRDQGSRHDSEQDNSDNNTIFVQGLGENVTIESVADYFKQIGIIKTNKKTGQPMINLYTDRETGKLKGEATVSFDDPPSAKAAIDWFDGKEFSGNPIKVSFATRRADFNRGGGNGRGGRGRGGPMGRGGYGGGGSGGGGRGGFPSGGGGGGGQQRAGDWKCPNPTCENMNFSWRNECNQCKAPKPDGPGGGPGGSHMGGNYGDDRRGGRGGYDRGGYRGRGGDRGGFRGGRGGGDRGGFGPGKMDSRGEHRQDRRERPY
PROTOCOL DESCRIPTION: microchip free-flow electrophoresis (DigitISA); 700 nM aptamer, 2 uM FUS, condensates present; monomer-bound vs free; 10 mM HEPES pH 7.4, 0.05% Tween-20, room temperature (IgE; fibrils and exosomes same buffer); FUS: 50 mM Tris-HCl pH 7.4, 25 mM KCl, 0.02% Tween-20, on-chip desalting; oligomers: from PBS pH 7.4, on-chip desalting
TEST PARAMETERS: protein: recombinant; tags: SNAP; label: 3'-Atto488
ASSAY METRIC: Kd (nM)
Could you give me the number in nM? Just the number is fine.

Short answer for UUGUAUUUUGAGCUAGUUUGGUGAC (ssRNA) [GGUG RNA aptamer] : Kd was 280
